- Tested on: Escherichia coli
- Procedure Summary: Minimal inhibitory concentration against Escherichia coli JR66/W677 was determined by 2-fold agar dilution streak method at 37: C for 18 h
- Assay type: functional
Readout: MIC (µg/mL)

A = NCCCC(=O)NC1CC(N)C(OC2OC(CN)CCC2N)C(O)C1OC1OC(CO)C(O)C(N)C1O (stereo not given)
B = NCC1CCC(N)C(OC2C(N)CC(NC(=O)CCCN=C(N)N)C(OC3OC(CO)C(O)C(N)C3O)C2O)O1 (stereo not given)
C = NCC1CCC(N)C(OC2C(N)CC(NC(=O)[C@H](O)CCN=C(N)N)C(OC3OC(CO)C(O)C(N)C3O)C2O)O1 (stereo not given in full)
Please put the entries in order of rising MIC. Form field (ranking): labels in requested order.
C, A, B

----------
- System: Micrococcus luteus
- Procedure Summary: Minimal inhibitory concentration against Micrococcus luteus FDA16 was determined by 2-fold agar dilution streak method at 37: C for 18 h
- Type: functional
Readout: MIC (µg/mL)

Here NCCCC(=O)NC1CC(N)C(OC2OC(CN)CCC2N)C(O)C1OC1OC(CO)C(O)C(N)C1O (stereo not given) was tested on Micrococcus luteus, and its MIC came to 100

a = NCC1CCC(N)C(OC2C(N)CC(NC(=O)CCCN=C(N)N)C(OC3OC(CO)C(O)C(N)C3O)C2O)O1 (stereo not given)
b = NCC1CCC(N)C(OC2C(N)CC(NC(=O)[C@H](O)CCN=C(N)N)C(OC3OC(CO)C(O)C(N)C3O)C2O)O1 (stereo not given in full)
Given a and given b , which shows the smaller recorded MIC? // caller expects the label of the chosen entry
b
